Target: human ether-à-go-go-related gene (hERG) potassium channel (human);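 note: peak tail current of the secondary pulse compared with the same well before compound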
Sequence (Q12809 whole entry, looked up): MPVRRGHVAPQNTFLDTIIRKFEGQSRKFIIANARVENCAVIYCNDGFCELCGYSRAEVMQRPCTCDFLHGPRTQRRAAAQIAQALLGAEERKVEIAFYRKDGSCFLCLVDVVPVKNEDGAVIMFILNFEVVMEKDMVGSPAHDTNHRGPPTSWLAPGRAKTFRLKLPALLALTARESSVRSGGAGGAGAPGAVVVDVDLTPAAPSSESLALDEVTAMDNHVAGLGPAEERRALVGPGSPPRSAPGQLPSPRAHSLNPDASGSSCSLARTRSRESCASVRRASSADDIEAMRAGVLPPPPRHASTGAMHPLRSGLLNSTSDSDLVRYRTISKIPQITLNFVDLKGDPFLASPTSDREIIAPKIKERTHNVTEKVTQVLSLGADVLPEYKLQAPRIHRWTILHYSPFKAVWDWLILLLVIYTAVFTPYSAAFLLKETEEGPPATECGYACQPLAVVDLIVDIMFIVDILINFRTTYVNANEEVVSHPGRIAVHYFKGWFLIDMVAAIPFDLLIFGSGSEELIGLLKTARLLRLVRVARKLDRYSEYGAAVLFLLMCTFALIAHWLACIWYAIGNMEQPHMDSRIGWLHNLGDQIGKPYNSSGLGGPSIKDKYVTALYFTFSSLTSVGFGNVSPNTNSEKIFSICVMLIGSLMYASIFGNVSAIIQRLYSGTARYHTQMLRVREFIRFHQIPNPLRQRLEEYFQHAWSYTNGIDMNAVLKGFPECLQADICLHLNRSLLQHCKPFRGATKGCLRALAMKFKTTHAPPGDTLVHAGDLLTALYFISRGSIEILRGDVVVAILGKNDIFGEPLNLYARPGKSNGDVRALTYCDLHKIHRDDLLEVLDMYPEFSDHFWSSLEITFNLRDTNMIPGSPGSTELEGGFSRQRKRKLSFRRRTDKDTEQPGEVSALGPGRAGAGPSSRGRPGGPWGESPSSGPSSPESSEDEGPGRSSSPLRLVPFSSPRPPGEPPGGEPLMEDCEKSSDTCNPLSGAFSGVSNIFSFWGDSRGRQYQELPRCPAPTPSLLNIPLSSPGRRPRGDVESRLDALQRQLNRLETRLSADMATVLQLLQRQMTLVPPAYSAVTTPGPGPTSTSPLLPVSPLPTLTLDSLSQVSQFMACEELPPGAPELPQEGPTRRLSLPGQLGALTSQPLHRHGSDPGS
Assay: primary screen, population patch clamp on CHO cells stably expressing hERG; higher = less effect of the substance
Experimental: Briefly, Chinese hamster ovary (CHO) cells stably expressing the hERG channel were dislodged from tissue culture flasks and dispensed into PPC plates. […] During the recording, background leak currents were estimated by a 100 ms step to -80 mV from an initial holding potential of -70 mV and subtracted from the subsequent current measurement. The campaign was conducted in two phases using slight differences in recording protocol. […]
The campaign covered roughly 310,000 compounds. About 14,000 (4.5%) showed an effect of 50% or more. The effect is printed as a negative number. Only a selection was taken, and strong results are over-represented in it overall.
// reported hERG current change (%, negative = inhibition) at 10uM for each item listed
Kindly answer with a numeric value in %, unit omitted.

Some solved cases for reference:
Cc1ccc(C(=O)N2CCN(c3ccccc3)CC2)cc1S(=O)(=O)N1CCCC1 | -31.2
CC1=CC(c2ccc(Cl)cc2)n2ncnc2N1 (stereo not shown) | -9.02
CCCNC(=O)NCCc1ccncc1 | 7.09

Asked: Query: hERG current change (%, negative = inhibition) at 10uM; subject: c1csc(-c2nnc(NC3CCCCC3)c3ccccc23)c1
Given back: -75.4

Asked: Would you kindly share the measured hERG current change (%, negative = inhibition) at 10uM for COc1ccccc1N1CCN(S(=O)(=O)c2ccc(-n3cnnn3)cc2)CC1 ?
Given back: -72

Asked: Fill blank: measured hERG current change (%, negative = inhibition) at 10uM of the compound O=C(NCc1ccccc1Cl)C1CCN(S(=O)(=O)c2ccc(-n3cnnn3)cc2)CC1 is ____.
Given back: -27.3

Asked: Looking for the measured hERG current change (%, negative = inhibition) at 10uM of Cc1ccc(C(=O)N2CCCCC2)cc1S(=O)(=O)N1CCCC1 , can you help?
Given back: 5.55

Asked: Give its hERG current change (%, negative = inhibition) at 10uM value. Item: CCCN1CCN(S(=O)(=O)c2ccc(-n3cnnn3)cc2)CC1
Given back: -28

Asked: # lookup: hERG current change (%, negative = inhibition) at 10uM of O=C(Cc1ccc(S(=O)(=O)N2CCOCC2)s1)N1CCN(c2cccc(C(F)(F)F)c2)CC1
Given back: -31.7

Asked: Param item = c1csc(-c2nc3ccccn3c2NC2CCCCC2)c1 ; retrieve measured hERG current change (%, negative = inhibition) at 10uM.
Given back: 8.81

Hey, just so you know, these numbers are from paper PMC4336329.
